Exercise: state measured pIC50 for each of the molecules provided.
system: human V2 receptor (Homo sapiens, UniProt P30518)
Sequence (P30518 whole entry): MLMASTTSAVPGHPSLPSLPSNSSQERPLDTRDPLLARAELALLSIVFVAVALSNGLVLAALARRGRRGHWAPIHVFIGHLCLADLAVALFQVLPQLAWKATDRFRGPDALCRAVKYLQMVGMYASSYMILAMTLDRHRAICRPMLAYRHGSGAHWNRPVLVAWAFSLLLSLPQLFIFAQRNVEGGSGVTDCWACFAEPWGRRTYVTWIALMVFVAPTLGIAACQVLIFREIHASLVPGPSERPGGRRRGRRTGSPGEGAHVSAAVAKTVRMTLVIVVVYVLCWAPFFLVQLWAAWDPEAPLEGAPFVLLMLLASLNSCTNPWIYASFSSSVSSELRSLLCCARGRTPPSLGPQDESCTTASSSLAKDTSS
experimentDescription: Cellular in vitro test for determination of the vasopressin receptor activity (aequorin luminescence, CHO cells), human V2
measurementSetup: cell line transfected with the human V2 receptor, antagonism of [Arg8]-vasopressin, read-out: IC50 hV2
// pIC50: -log10(molar conc.)

[in] For the molecule "CC(C)Cn1c(-c2ccccc2-c2ccccc2)nn(CC(=O)NCc2cccc(C(F)(F)F)c2)c1=O" , give its measured pIC50 value.
[out] 6.03

[in] For the molecule "CS(=O)(=O)c1ccccc1CNC(=O)Cn1nc(-c2ccc(Cl)cc2)n(Cc2ccccc2F)c1=O" , give its measured pIC50 value.
[out] 6.60

[in] For the molecule "CCC(=O)Cn1c(-c2ccc(Cl)cc2)nn(CC(=O)NC(C)(C)c2cccc(C(F)(F)F)c2)c1=O" , give its measured pIC50 value.
[out] 7.64

[in] For the molecule "C[C@H](NC(=O)Cn1nc(-c2ccc(Cl)s2)n(Cc2ccccc2F)c1=O)c1cccc(C(F)(F)F)c1" , give its measured pIC50 value.
[out] 7.89

[in] For the molecule "O=C(Cn1cc(-c2ccc(Cl)s2)n(Cc2ccccc2F)c1=O)NCc1cccc(C(F)(F)F)c1" , give its measured pIC50 value.
[out] 6.66

This collection of values is drawn from patent US8084481B2.
